PROTOCOL_NOTES: Agonist activity at RORgammat in mouse CD4+ T cells assessed as induction of Th17 cells differentiation by measuring increase in IL17 production measured after 4 days by intracellular staining based flow cytometry
MEASURED_METRIC: pEC50
Please express pEC50 as -log10 of the molar concentration.

Supply recorded pEC50 for "CCCN(Cc1ccc(NC(=O)Cc2ccc(S(C)(=O)=O)cc2)cc1Cl)CC1CCCCC1" here. 7.43
